ASSAY SYSTEM: hERG (Homo sapiens, UniProt Q12809)
Sequence (Q12809 whole entry): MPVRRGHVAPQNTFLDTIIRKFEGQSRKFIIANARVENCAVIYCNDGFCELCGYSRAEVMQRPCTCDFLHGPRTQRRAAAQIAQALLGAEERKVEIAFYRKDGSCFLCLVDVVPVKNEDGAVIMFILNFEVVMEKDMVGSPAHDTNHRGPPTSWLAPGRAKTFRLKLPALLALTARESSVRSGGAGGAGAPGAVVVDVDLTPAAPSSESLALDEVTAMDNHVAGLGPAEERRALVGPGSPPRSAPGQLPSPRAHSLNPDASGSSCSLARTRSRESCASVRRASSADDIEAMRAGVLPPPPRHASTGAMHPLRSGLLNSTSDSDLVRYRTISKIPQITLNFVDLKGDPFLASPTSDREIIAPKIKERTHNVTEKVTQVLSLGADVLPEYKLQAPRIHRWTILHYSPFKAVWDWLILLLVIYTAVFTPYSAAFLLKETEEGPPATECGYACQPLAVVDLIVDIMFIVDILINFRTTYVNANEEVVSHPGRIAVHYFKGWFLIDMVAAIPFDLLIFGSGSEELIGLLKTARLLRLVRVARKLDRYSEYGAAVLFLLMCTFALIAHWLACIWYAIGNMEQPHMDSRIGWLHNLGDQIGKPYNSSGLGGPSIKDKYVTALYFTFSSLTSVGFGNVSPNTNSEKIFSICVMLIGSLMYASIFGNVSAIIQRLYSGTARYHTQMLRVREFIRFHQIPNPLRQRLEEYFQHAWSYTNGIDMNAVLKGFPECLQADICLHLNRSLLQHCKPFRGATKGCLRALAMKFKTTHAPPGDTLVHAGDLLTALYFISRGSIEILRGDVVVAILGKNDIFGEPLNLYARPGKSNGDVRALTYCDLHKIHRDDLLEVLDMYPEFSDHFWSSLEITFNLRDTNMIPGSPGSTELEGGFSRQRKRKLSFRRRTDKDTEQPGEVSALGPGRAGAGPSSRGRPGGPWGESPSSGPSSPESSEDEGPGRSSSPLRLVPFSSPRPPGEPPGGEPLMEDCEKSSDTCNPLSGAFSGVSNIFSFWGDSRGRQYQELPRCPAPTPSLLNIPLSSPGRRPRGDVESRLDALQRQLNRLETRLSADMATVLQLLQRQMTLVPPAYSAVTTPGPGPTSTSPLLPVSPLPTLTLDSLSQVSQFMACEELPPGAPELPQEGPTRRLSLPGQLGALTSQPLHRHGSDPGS
PROTOCOL: hERG competitive displacement fluorescence polarization assay

{"MOLECULE": "COCO[C@H]1C[C@H]2OC(C)(C)OC[C@]23[C@@H]2[C@@H](CC[C@]3(O)C1)[C@@]1(OCOC)CC[C@H](CO)[C@@]1(C)C[C@H]2OCOC [Compound 17]", "IC50": "> 60 µM"}
{"MOLECULE": "COCO[C@@H]1[C@H]2OC(C)(C)O[C@H]2[C@H](O[C@H]2C[C@H]3OC(C)(C)OC[C@]34[C@@H]3[C@@H](CC[C@]4(O)C2)[C@@]2(O)CC[C@H](CO)[C@@]2(C)C[C@H]3OCOC)O[C@H]1C [Compound 10]", "IC50": "> 60 µM"}
{"MOLECULE": "C[C@]12C[C@@H](O)[C@H]3[C@@H](CC[C@]4(O)C[C@@H](O)C[C@@H](O)[C@]34CO)[C@@]1(O)CC[C@@H]2c1cn(Cc2ccccc2)nn1 [Compound 25]", "IC50": "> 60 µM"}
